Recorded CC50 at 3 days for the following compounds
experiment: Cell viability assay (MTS); format: cell-based; settings: hamster, nucleobase dose-response +Prdg 1 0.09 μM

| SMILES STRUCTURE | CC50 at 3 days |
| --- | --- |
| NC(=O)c1nc(F)c[nH]c1=O | > 500 µM |
| NC(=O)c1nc[nH]n1 | > 50 µM |
| NC(=O)c1ncc[nH]c1=O | > 167 µM |

====

Recorded log10 CC50 at 3 days for the following compounds
assay: Cell viability assay (MTS); format: cell-based; conditions: hamster, compound alone; DENV replicon cells, MTS, three days
ASSAY ENDPOINT: log10 CC50 at 3 days (log10 of the value in µM)

| COMPOUND | log10 CC50 at 3 days |
| --- | --- |
| O=c1cnn([C@@H]2O[C@H](CO)[C@@H](O)[C@H]2O)c(=O)[nH]1 [Prdg 6-azauridine, 6-azauridine] | 0.94 |
| CSc1ncnc2c1ncn2[C@@H]1O[C@H](COC(=O)C(C)C)[C@@H](OC(=O)C(C)C)[C@H]1OC(=O)C(C)C [Prdg 1] | 0.41 |
| CSc1ncnc2c1ncn2[C@@H]1O[C@H](CO)[C@@H](O)[C@H]1O [Prdg 6MMPR, 6-methylmercaptopurine riboside] | -0.68 |
| CSc1ncnc2c1ncn2[C@@H]1O[C@H](COC(=O)N(C)C)[C@@H](O)[C@H]1O [Prdg 2] | 0.73 |
| Cc1c(-c2ccc(-c3ccccc3F)cc2)nc2ccc(F)cc2c1C(=O)O [Brequinar] | 0.65 |
| CC(C)C(=O)OC[C@H]1O[C@@H](n2ccc(NO)nc2=O)[C@H](O)[C@@H]1O [Molnupiravir] | 1.72 |

====

system: DENV replicon; assay: DENV replicon cell assay (Renilla luciferase); format: cell-based, Dengue virus (DENV); details: Dengue virus, 72 h, compound alone; DENV BHK replicon cells, luciferase, three days
pEC50: −log10 of the molar value.

| COMPOUND | TESTED TARGET | COMPARISON OPERATOR | pEC50 |
| --- | --- | --- | --- |
| CSc1ncnc2c1ncn2[C@@H]1O[C@H](COC(=O)C(C)C)[C@@H](OC(=O)C(C)C)[C@H]1OC(=O)C(C)C | DENV replicon | = | 6.59 |
| O=c1cc[nH]c(=S)[nH]1 | DENV replicon | < | 4.30 |
| CC(C)C(=O)OC[C@H]1O[C@@H](n2ccc(NO)nc2=O)[C@H](O)[C@@H]1O | DENV replicon | = | 5.21 |
| O=c1cnn([C@@H]2O[C@H](CO)[C@@H](O)[C@H]2O)c(=O)[nH]1 | DENV replicon | = | 5.72 |
| CSc1ncnc2c1ncn2[C@@H]1O[C@H](COC(=O)N(C)C)[C@@H](O)[C@H]1O | DENV replicon | = | 5.60 |
| NC(=O)c1nc(F)c[nH]c1=O | DENV replicon | = | 3.94 |
| O=c1[nH]cc(F)c(=O)[nH]1 | DENV replicon | = | 6.13 |
| Cc1c(-c2ccc(-c3ccccc3F)cc2)nc2ccc(F)cc2c1C(=O)O | DENV replicon | = | 5.52 |
| NC(=O)c1nc[nH]n1 | DENV replicon | = | 5.24 |
| CSc1ncnc2c1ncn2[C@@H]1O[C@H](COC(=O)N(C)C)[C@@H](OC(=O)C(C)C)[C@H]1OC(=O)C(C)C | DENV replicon | = | 5.64 |
| CSc1ncnc2c1ncn2[C@@H]1O[C@H](CO)[C@@H](O)[C@H]1O [Prdg 6MMPR, 6-methylmercaptopurine riboside] | DENV replicon | = | 6.68 |
| O=c1ccn([C@@H]2O[C@H](CO)[C@@H](O)[C@H]2O)c(=S)[nH]1 | DENV replicon | < | 4.30 |
| NC(=O)c1ncc[nH]c1=O | DENV replicon | = | 4.89 |
